- subject_of_test: aldosterone synthase (Homo sapiens)
- Construct: host or cells: NCI-H295R
- Sequence (P19099 25-503): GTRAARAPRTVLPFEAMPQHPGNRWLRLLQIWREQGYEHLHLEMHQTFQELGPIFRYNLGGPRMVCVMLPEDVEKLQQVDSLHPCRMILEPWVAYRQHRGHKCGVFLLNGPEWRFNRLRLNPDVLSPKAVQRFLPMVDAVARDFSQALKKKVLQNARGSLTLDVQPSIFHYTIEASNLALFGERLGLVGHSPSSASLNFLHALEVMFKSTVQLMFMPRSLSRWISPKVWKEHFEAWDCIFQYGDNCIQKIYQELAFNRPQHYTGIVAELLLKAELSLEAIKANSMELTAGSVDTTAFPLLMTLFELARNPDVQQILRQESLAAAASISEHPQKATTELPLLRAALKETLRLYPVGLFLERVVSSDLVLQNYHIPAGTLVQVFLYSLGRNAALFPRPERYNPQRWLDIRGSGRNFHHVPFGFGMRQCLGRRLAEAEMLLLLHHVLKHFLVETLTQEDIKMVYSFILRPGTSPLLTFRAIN
- experiment_description: Aldosterone cell secretion in Ang II-stimulated NCI-H295R cells (SPA with anti-aldosterone antibody)
- Type: cell-based
- condition_details: human adrenocortical carcinoma NCI-H295R cells, 1 μM Ang II, 24 h
- Procedure: In particular, the aldosterone synthase inhibitory activities in vitro can be determined by the following assay. Human adrenocortical carcinoma NCI-H295R cell line was obtained from American Type Culture Collection (Manassas, Va.). […] Measurement of aldosterone activity can also be performed using a 96-well plate format. […] The amount of aldosterone in each sample is calculated by comparing with a standard curve generated using known quantities of the hormone. […]
The entries below are paired with their reported IC50.
Form entry: value (nM) — number only.

// below: answered molecules
{"molecule": "CCS(=O)(=O)NC(c1cncc(-c2ccc(C#N)cc2F)c1)C1CC1 (stereo not drawn)", "scale_unit": "nM", "IC50": 167}
{"molecule": "N#Cc1ccc(-c2cncc(CN3CCCS3(=O)=O)c2)cc1Cl", "scale_unit": "nM", "IC50": 12}
{"molecule": "CCCC(NS(=O)(=O)CC)c1cncc(-c2ccc(C#N)c(Cl)c2)c1 (single isomer, unassigned)", "scale_unit": "nM", "IC50": 89}
{"molecule": "CCS(=O)(=O)NC(c1cncc(-c2cccc(Cl)c2Cl)c1)C1CC1 (stereo not drawn)", "scale_unit": "nM", "IC50": 5}
{"molecule": "CCS(=O)(=O)Nc1cncc(-c2ccc(C#N)c(OC)c2)c1", "scale_unit": "nM", "IC50": 33}

Now turn to the next molecule.
Q) Please list IC50 recorded for the molecule `CCc1ccc(S(=O)(=O)Nc2cncc(-c3ccc(C#N)c(Cl)c3)c2)cc1`
A) 6

Attribution: patent US8809545B2
